The measurements presented in this section are drawn from patent US20250179057A1.

- Test system: wistar hannover rat hepatocytes
- ASSAY SUMMARY: Hepatocyte stability, wistar hannover rat
- Format: in vitro ADME
- STATED CONDITIONS: 2 μM, 0.5 million cells/ml
// boundary case: CLint (mL/min/kg) equal to 50 mL/min/kg maps to No; strictly smaller maps to Yes

>>> print(df.to_string())
                            chemical_string  cat
0  CNS(=O)(=O)Nc1cccc(Cc2c(CN(C)C)c3ccc(OC(=O)N(C)C)cc3oc2=O)c1F  Yes
1  CNS(=O)(=O)Nc1cccc(Cc2c(CN(C)C)c3cc(F)c(OC(=O)N(C)C)cc3oc2=O)c1F  Yes
2  CCCS(=O)(=O)Nc1cccc(Cc2c(CN3CCNCC3)c3cc(Cl)c(OC(=O)N(C)C)cc3oc2=O)c1F   No
3  CNS(=O)(=O)Nc1cccc(Cc2c(CN3CCNCC3)c3cc(F)c(OC(=O)N(C)C)cc3oc2=O)c1F  Yes

---

- TESTED SYSTEM: CYP2B6 (Homo sapiens, UniProt P20813)
- Sequence (P20813 whole entry): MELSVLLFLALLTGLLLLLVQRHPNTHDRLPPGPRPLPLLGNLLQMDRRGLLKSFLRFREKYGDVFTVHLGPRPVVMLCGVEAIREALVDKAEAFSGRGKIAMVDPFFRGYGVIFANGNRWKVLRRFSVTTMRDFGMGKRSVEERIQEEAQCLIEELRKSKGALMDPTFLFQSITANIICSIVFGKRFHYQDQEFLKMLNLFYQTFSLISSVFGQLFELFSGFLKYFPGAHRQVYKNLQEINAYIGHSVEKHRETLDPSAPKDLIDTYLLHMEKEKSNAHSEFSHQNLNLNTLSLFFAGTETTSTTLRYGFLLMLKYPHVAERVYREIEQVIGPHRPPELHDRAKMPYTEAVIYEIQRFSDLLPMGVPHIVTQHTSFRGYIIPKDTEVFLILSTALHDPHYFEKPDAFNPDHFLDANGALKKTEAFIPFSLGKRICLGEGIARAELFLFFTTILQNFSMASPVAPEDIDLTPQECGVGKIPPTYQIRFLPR
- ASSAY SUMMARY: CYP450 panel inhibition in human liver microsomes, 2B6 (bupropion)
- STATED CONDITIONS: 10 μM, substrate bupropion
MEASURE: CYP-2B6 (Bupropion) mean percentage CYP inhibition (%)

>>> df
                            chemical_string  endpoint_unit  numeric_readout
0  CCCS(=O)(=O)Nc1cccc(Cc2c(CN3CCNCC3)c3cc(Cl)c(OC(=O)N(C)C)cc3oc2=O)c1F              %             19.8
1  CNS(=O)(=O)Nc1cccc(Cc2c(CN3CCNCC3)c3cc(F)c(OC(=O)N(C)C)cc3oc2=O)c1F              %             10.3
2  CNS(=O)(=O)Nc1cccc(Cc2c(CN(C)C)c3cc(F)c(OC(=O)N(C)C)cc3oc2=O)c1F              %             16.0
3  CNS(=O)(=O)Nc1nccc(Cc2c(CN(C)C)c3ccc(OC(=O)N(C)C)cc3oc2=O)c1F              %             25.5
4  CNS(=O)(=O)Nc1cccc(Cc2c(CN(C)C)c3ccc(OC(=O)N(C)C)cc3oc2=O)c1F              %             −2.5
5  CCS(=O)(=O)Nc1cccc(Cc2c(CN(C)C)c3ccc(OC(=O)N(C)C)cc3oc2=O)c1F              %             13.4

---

- ASSAY SUMMARY: Mouse pharmacokinetics (oral cassette dosing), plasma
- Format: in vivo
- STATED CONDITIONS: BALB/c immunocompetent mice, 5 mg/kg p.o.
- Procedure: Female mice (BALC/c) received a single dose (3 mice/treatment) of vehicle (10% 1N HCl:90% [20% […]) and at 0.5, 1, 2, 4, 8, 12 and 24-hour post dose humanely euthanized. Blood was obtained through cardiac puncture into K+EDTA tubes, mixed by inversion and centrifuged to obtain the plasma. Blood will be kept on ice or at approximately 4° C. prior. Centrifugation will take place within 30 minutes of blood collection affording plasma samples. […] All samples will be analysed by means of LC-MS/MS. […]
Recorded Cmax values for a group of molecules are listed next.
MEASURE: Cmax (ng/mL)

                            chemical_string  numeric_readout
0  CNS(=O)(=O)Nc1cccc(Cc2c(CN(C)C)c3cc(F)c(OC(=O)N(C)C)cc3oc2=O)c1F             1037
1  CNS(=O)(=O)Nc1cccc(Cc2c(CN(C)C)c3cc(Cl)c(OC(=O)N(C)C)cc3oc2=O)c1F            422.7
2  CCN(C)Cc1c(Cc2cccc(NS(=O)(=O)CC)c2F)c(=O)oc2cc(OC(=O)N(C)C)c(Cl)cc12              9.1
3  CNS(=O)(=O)Nc1cccc(Cc2c(CN(C)C)c3ccc(OC(=O)N(C)C)cc3oc2=O)c1F              725
4  CCS(=O)(=O)Nc1cccc(Cc2c(CN(C)C)c3ccc(OC(=O)N(C)C)cc3oc2=O)c1F           1422.7

---

- ASSAY SUMMARY: Caco-2 bidirectional permeability (absorption & efflux)
- STATED CONDITIONS: human
Structures can show the parent of a compound that is named as a salt.
MEASURE: Papp B→A at 2 h, 10 μM (×10⁻⁶ cm/s)

>>> df
                                   compound  numeric_readout
0  CNS(=O)(=O)Nc1cccc(Cc2c(CN3CCNCC3)c3ccc(OC(=O)N(C)C)cc3oc2=O)c1Cl [Compound 246, hydrochloride]             6.99
1  CNS(=O)(=O)Nc1cccc(Cc2c(CN(C)C)c3ccc(OC(=O)N(C)C)cc3oc2=O)c1Cl             8.95
2  CCS(=O)(=O)Nc1cccc(Cc2c(CN3CCNCC3)c3cc(Cl)c(OC(=O)N(C)C)cc3oc2=O)c1Cl [Compound 257, hydrochloride]             22.1
3  CNS(=O)(=O)Nc1cccc(Cc2c(CN3CCNCC3)c3cc(Cl)c(OC(=O)N(C)C)cc3oc2=O)c1Cl [Compound 256, hydrochloride]             13.4
4  CCN(C)Cc1c(Cc2cccc(NS(=O)(=O)NC)c2F)c(=O)oc2cc(OC(=O)N(C)C)c(F)cc12             13.5
5  CCN(C)Cc1c(Cc2cccc(NS(=O)(=O)NC)c2Cl)c(=O)oc2cc(OC(=O)N(C)C)ccc12             6.87

---

- ASSAY SUMMARY: Hepatocyte stability, human
- Format: in vitro ADME
- STATED CONDITIONS: human, hepatocytes, 0.5 million cells/ml, read-out: CLint (mL/min/kg)
Where a name gives a salt, the structure may show the parent alone.
// boundary case: CLint scaled at 2 μM equal to 60 mL/min/kg maps to rule not met; strictly smaller maps to rule met

In [3]: df
Out[3]:
                                   molecule           cat
0  CCS(=O)(=O)Nc1cccc(Cc2c(CN3CCNCC3)c3cc(Cl)c(OC(=O)N(C)C)cc3oc2=O)c1Cl [Compound 257, hydrochloride]      rule met
1  CCN(C)Cc1c(Cc2cccc(NS(=O)(=O)NC)c2Cl)c(=O)oc2cc(OC(=O)N(C)C)ccc12  rule not met
2  CNS(=O)(=O)Nc1cccc(Cc2c(CN3CCNCC3)c3cc(Cl)c(OC(=O)N(C)C)cc3oc2=O)c1Cl [Compound 256, hydrochloride]      rule met
3  CNS(=O)(=O)Nc1cccc(Cc2c(CN(C)C)c3ccc(OC(=O)N(C)C)cc3oc2=O)c1Cl      rule met
4  CNS(=O)(=O)Nc1cccc(Cc2c(CN3CCNCC3)c3ccc(OC(=O)N(C)C)cc3oc2=O)c1Cl [Compound 246, hydrochloride]      rule met

---

- System: beagle dog hepatocytes
- ASSAY SUMMARY: Hepatocyte stability, beagle dog
- Assay type: in vitro ADME
- STATED CONDITIONS: 2 μM, 0.5 million cells/ml
// boundary case: T1/2 equal to 3 h maps to NOT MET; strictly smaller maps to MET

>>> df
                                   compound           tested_system      cat
0  CCCS(=O)(=O)Nc1cccc(Cc2c(CN3CCNCC3)c3cc(Cl)c(OC(=O)N(C)C)cc3oc2=O)c1F [Compound 167]  beagle dog hepatocytes      MET
1  CCS(=O)(=O)Nc1cccc(Cc2c(CN(C)C)c3ccc(OC(=O)N(C)C)cc3oc2=O)c1F [Compound 120]  beagle dog hepatocytes      MET
2  CNS(=O)(=O)Nc1cccc(Cc2c(CN3CCNCC3)c3cc(F)c(OC(=O)N(C)C)cc3oc2=O)c1F [Compound 134]  beagle dog hepatocytes  NOT MET
3  CNS(=O)(=O)Nc1nccc(Cc2c(CN(C)C)c3ccc(OC(=O)N(C)C)cc3oc2=O)c1F [Compound 124]  beagle dog hepatocytes      MET
4  CNS(=O)(=O)Nc1cccc(Cc2c(CN(C)C)c3ccc(OC(=O)N(C)C)cc3oc2=O)c1F [Compound 9]  beagle dog hepatocytes  NOT MET

---

- TESTED SYSTEM: CYP2C9 (Homo sapiens, UniProt P11712)
- Sequence (P11712 whole entry): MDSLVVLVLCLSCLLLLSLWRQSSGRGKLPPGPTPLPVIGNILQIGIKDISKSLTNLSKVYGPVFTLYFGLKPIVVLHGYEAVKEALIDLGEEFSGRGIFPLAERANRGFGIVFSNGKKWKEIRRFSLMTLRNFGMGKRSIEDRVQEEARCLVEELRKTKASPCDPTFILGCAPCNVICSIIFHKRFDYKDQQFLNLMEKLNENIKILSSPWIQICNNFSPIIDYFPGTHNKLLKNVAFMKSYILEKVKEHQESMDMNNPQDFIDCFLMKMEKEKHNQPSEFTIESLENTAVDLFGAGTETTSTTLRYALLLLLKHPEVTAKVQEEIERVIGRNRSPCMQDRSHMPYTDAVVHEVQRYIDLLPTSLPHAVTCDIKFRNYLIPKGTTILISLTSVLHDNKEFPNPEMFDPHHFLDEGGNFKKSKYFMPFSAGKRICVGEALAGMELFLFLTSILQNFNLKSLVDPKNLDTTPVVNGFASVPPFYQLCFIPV
- ASSAY SUMMARY: CYP450 panel inhibition in human liver microsomes, 2C9 (diclofenac)
- STATED CONDITIONS: human, 30 min, 10 μM, pH 7.4
MEASURE: CYP2C9 inhibition (%)

In [3]: df
Out[3]:
                                   compound            measure  numeric_readout
0  Cn1cnc2c(F)c(Nc3ccc(Br)cc3Cl)c(C(=O)NOCCO)cc21 [Reference-1, Selumetinib]  CYP2C9 inhibition             14.1
